Every entry's value here was drawn from patent US20150105252A1.

# System: velvetleaf
# Experiment notes: Test A preemergence
# Assay type: in vivo, Abutilon theophrasti
# Test conditions: preemergence, 500 g ai/ha, visual injury after approx. 10 days, 0 to 100 scale (0 no effect, 100 complete control)

Compound	Measurement target	Velvetleaf plant response rating
CCCNC(=O)c1cc(C)n(Cc2ccnc(C(F)(F)F)c2)n1 [Compound 191]	velvetleaf	100
CCNC(=O)c1cc(CC)n(Cc2ccnc(OC(F)F)c2)n1 [Compound 130]	velvetleaf	100
CCCc1cc(C(=O)Nc2ccc(F)cc2)nn1Cc1cc(C(F)(F)F)nn1C [Compound 150]	velvetleaf	0
O=C(NC1CC1)c1cc(Cl)n(Cc2cccc(C(F)(F)F)c2)n1 [Compound 174]	velvetleaf	0
CCCc1cc(C(=O)NCC(F)(F)F)nn1Oc1ccnc(C(F)(F)F)c1 [Compound 92]	velvetleaf	0
CCOc1cc(C(=O)NC2CC2)nn1Cc1ccnc(C(F)(F)F)c1 [Compound 189]	velvetleaf	100
CCc1cc(C(=O)NN(C)C)nn1Cc1ccnc(C(F)(F)F)c1 [Compound 192]	velvetleaf	0
CCCNC(=O)c1cc(I)n(Cc2cccc(C(F)(F)F)c2)n1 [Compound 183]	velvetleaf	0
CCONC(=O)c1cc(OCC)n(Cc2ccnc(C(F)(F)F)c2)n1 [Compound 195]	velvetleaf	100
Cc1cc(C(=O)NC(C)C)nn1Cc1ccnc(C(F)(F)F)c1 [Compound 197]	velvetleaf	100
CCCc1cc(C(=O)NCC)nn1Cc1ccnc(C(F)(F)F)c1 [Compound 95]	velvetleaf	100

---

# System: ragweed
# Experiment notes: Test C preemergence
# Type: in vivo, Ambrosia elation
# Test conditions: preemergence, 125 g ai/ha; scale 0 to 100, 0 is no effect, 100 is complete control

Smiles string	Ragweed plant response rating
CCONC(=O)c1cc(CC)n(Cc2cc(C(F)(F)F)no2)n1	55
CCc1cc(C(=O)NCC(F)(F)F)nn1Cc1ccnc(C(F)(F)F)c1	98
CCOc1cc(C(=O)NCC(F)(F)F)nn1Cc1ccnc(C(F)(F)F)c1	100
CCCc1cc(C(=O)NCC)nn1Cc1ccnc(C(F)(F)F)c1	100

---

# System: ducksalad
# Experiment notes: Test B flood
# Type: in vivo, Heteranthera limosa
# Test conditions: 250 g ai/ha, visual rating on 0 to 100 scale (0 no effect, 100 complete control), 13 to 15 days

Compound	Plant response rating, Ducksalad
CCc1cc(C(=O)NCC(F)(F)F)nn1Oc1ccnc(C(F)(F)F)c1 [Compound 84]	20
CCNC(=O)c1cc(CC)n(Cc2ccnc(C(F)(F)F)c2)n1 [Compound 196]	80
CCc1cc(C(=O)NCC(F)(F)F)nn1Oc1cccc(OC(F)(F)F)c1 [Compound 221]	0
CCCc1cc(C(=O)NCC(F)(F)F)nn1Cc1ccnc(C(F)(F)F)c1 [Compound 105]	95
CCNC(=O)c1cc(CCCl)n(Cc2ccnc(C(F)(F)F)c2)n1 [Compound 179]	100

---

# System: oat, wild
# Experiment notes: Test C postemergence
# Assay type: in vivo, Avena fatua
# Test conditions: postemergence; 125 g ai/ha; scale 0 to 100, 0 no effect, 100 complete control
Measurement type: Plant response rating, Oat, Wild

Smiles string	Measurement target	Endpoint value
CCOc1cc(C(=O)NCC(F)(F)F)nn1Cc1ccnc(C(F)(F)F)c1	oat, wild	35
CCc1cc(C(=O)NOC(C)C)nn1Cc1ccnc(C(F)(F)F)c1	oat, wild	10
CCOc1cc(C(=O)NC(C)C)nn1Cc1ccnc(C(F)(F)F)c1	oat, wild	60
CCc1cc(C(=O)NCC2CC2)nn1Cc1ccnc(C(F)(F)F)c1	oat, wild	30
